test system: Streptococcus sp. Leo EG2; experiment: In vitro activity, concentration required for 50% inhibition (Table A); assay type: cell-based; details: Streptococcus sp. Leo EG2; read-out: Concentration required for 50% inhibition (IC50)
Structures can show the parent of a compound that is named as a salt.
TEST_READOUT: IC50 (µg/mL)
Provide only the numeric value, understood in µg/mL.

Please review the following examples before continuing.
CC(C)=CCCC(C(=O)O)C1=C2C[C@@H](O)[C@H]3[C@@]4(C)CC[C@@H](O)[C@@H](C)[C@@H]4CC[C@]3(C)[C@@]2(C)C[C@@H]1SCc1ccco1 (some centres unmarked); 1.6
C=CCS[C@H]1C[C@@]2(C)C(=C1C(CCC=C(C)C)C(=O)O)C[C@@H](O)[C@H]1[C@@]3(C)CC[C@@H](O)[C@@H](C)[C@@H]3CC[C@@]12C (some centres unmarked); 1.6
CC(C)=CCCC(C(=O)O)C1=C2C[C@@H](O)[C@H]3[C@@]4(C)CC[C@@H](O)[C@@H](C)[C@@H]4CC[C@]3(C)[C@@]2(C)C[C@@H]1Sc1ccc(Br)cc1 (some centres unmarked) [Example 2, sodium salt]; 0.5

Query :: Need IC50 of CC(C)=CCCC(C(=O)O)C1=C2C[C@@H](O)[C@H]3[C@@]4(C)CC[C@@H](O)[C@@H](C)[C@@H]4CC[C@]3(C)[C@@]2(C)C[C@@H]1SC(C)(C)C (some centres unmarked) , thanks.
Result :: 1.6

Query :: Please look up its IC50: CC(C)CCCC(C(=O)O)C1=C2C[C@@H](O)[C@H]3[C@@]4(C)CC[C@@H](O)[C@@H](C)[C@@H]4CC[C@]3(C)[C@@]2(C)C[C@@H]1Sc1ccccc1 (some centres unmarked) [Example 8, sodium salt]
Result :: 0.5
